Target: UniProt:Q8IL11
Sequence (Q8IL11 whole entry): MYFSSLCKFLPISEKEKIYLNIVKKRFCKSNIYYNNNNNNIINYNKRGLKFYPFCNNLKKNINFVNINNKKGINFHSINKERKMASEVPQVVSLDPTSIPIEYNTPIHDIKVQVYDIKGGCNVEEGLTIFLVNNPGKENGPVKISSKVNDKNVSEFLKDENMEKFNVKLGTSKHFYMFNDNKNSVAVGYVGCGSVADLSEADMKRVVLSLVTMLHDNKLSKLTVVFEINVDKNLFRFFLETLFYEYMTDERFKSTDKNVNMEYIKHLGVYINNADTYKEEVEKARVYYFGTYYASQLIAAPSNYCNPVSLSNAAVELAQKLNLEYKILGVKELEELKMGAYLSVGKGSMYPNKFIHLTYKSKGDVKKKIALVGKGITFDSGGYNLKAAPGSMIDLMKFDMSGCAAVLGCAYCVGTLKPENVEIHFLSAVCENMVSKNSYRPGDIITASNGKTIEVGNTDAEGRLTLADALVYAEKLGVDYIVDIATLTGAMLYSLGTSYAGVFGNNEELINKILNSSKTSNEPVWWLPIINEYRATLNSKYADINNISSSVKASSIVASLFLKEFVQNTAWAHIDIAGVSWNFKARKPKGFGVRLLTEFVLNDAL
Test: P. falciparum M17LAP inhibitors, primary screen, biochemical, fluorogenic H-Leu-NHMec substrate, 1536-well (AID 1619)
Format: functional
Calls of active or inactive are those of the source. The rule behind the calls is not given here.
# key: entry, value: IC50
quantity-name: IC50

compound | value-measured
O=C(Nc1nccs1)c1ccc(NC(=O)C2CC=CCC2C(=O)O)cc1 (stereo not given) | 23.2 µM (active)
CCOc1ccc(NC(=O)CSc2nc(C)cc(C)n2)cc1 | 4.3 µM (active)
CCOC(=O)c1c(NC(=O)CSc2nnc(C)c(=O)[nH]2)sc2c1CCCC2 | 9.34 µM (active)
COC(=O)c1c(NC(=O)C2C3C=CC(CC3)C2C(=O)O)sc(C)c1C (stereo not given) | 19 µM (active)
COc1ccc(NC(=O)CSc2nnc[nH]2)c([N+](=O)[O-])c1 | 17 µM (active)
